# pIC50 against RAC-alpha serine/threonine-protein kinase (Homo sapiens, UniProt P31749), merged from multiple literature sources
pIC50: −log10 of the molar value.
endpoint: pIC50

COc1cc2ncc3c(N)nc(-c4cncn4C)cc3c2cc1OC :: 6.40
Cc1[nH]c(C(=O)N[C@H]2CNCC[C@@H]2c2cccc(C#N)c2)cc1-c1c(Br)cnn1C (racemic) :: 7.59

P. CNC[C@H](Cc1cccc(F)c1)NC(=O)c1cc2c(s1)CCCn1ncc(Cl)c1-2
Q. NC[C@H](Cc1ccc(F)c(F)c1)NC(=O)c1cc2c(o1)CCCn1ncc(Cl)c1-2
I'm curious, which of these has a smaller pIC50 number: P or Q ? Let me know the label of the one you choose.
P
